# tgt: T1, EsCas13d, nuclease-dead (Eubacterium siraeum, UniProt B0MS50, R295A;H300A;R849A;H854A)
# T1 sequence: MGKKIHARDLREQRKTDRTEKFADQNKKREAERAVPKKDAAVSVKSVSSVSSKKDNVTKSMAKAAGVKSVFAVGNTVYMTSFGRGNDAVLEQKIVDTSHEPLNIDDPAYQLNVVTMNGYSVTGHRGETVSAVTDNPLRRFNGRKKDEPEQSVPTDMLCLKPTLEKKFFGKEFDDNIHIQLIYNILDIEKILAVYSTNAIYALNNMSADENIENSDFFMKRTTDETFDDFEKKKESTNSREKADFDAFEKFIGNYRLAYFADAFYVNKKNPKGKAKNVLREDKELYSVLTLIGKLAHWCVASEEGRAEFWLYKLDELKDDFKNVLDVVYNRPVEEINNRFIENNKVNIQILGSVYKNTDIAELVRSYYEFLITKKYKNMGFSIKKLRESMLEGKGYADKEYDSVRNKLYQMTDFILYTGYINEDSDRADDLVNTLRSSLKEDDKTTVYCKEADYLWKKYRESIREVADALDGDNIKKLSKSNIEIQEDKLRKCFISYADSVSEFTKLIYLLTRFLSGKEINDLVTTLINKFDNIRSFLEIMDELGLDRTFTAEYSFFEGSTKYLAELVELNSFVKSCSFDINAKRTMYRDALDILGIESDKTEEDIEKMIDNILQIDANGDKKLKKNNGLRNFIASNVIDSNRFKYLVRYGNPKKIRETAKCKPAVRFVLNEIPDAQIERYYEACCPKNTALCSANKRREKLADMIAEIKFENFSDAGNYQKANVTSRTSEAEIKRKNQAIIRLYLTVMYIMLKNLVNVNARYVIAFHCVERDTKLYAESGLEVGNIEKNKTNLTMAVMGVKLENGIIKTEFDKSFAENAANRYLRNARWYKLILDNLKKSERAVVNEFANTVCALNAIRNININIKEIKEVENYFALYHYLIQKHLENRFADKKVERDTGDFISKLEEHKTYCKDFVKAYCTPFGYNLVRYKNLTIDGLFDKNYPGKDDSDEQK
# procedure.text: crRNA (strand 1, pre-loaded); Mg2+; 40 mM Tris-HCl pH 7.5, 150 mM NaCl, 6 mM MgCl2, 1 mM DTT, 0.1% Tween-20, 0.2 mg/ml BSA; 25 C; 10 min per concentration, then washed
# condition.context: tags: His6-TwinStrep-SUMO cleaved; N-terminal SNAP kept (SNAP-Surface 488); label: 3' end held by stalled T7 RNA polymerase
For each record, write down the corresponding Kd.
Numbers only, in nM.

[
  {
    "binder": "target 1 MT 5'PFS GCC 3'PFS UUC (mixed) RNA 1: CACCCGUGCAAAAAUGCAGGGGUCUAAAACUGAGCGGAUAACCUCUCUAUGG RNA 2: GGGAAUGGAUCCACAUCUACGAAUUCGCCCCAUAGAGAGGUUAUCCGCUCAUUCAGAUCGGAAGAGCACACGU",
    "uom": "nM",
    "data.value": 17
  },
  {
    "binder": "target 2 MT 5'PFS AGA 3'PFS UCC (mixed) RNA 1: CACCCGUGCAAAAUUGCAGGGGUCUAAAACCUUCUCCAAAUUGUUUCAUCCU RNA 2: GGGAAUGGAUCCACAUCUACGAAUUCAGAAGGAUGAAACAAUUUGGAGAAGUCCAGAUCGGAAGAGCACACGU",
    "uom": "nM",
    "data.value": 43
  },
  {
    "binder": "target 1 C7G,G12U (mixed) RNA 1: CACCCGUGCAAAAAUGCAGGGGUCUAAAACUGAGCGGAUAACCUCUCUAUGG RNA 2: GGGAAUGGAUCCACAUCUACGAAUUCGUACCAUAGAGAGUUUAUGCGCUCACCGAGAUCGGAAGAGCACACGU",
    "uom": "nM",
    "data.value": 14.3
  }
]

Give Kd for each of the items listed below.
1. target 1 C7A,G17A (mixed) RNA 1: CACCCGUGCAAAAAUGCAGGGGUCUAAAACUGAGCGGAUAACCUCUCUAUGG RNA 2: GGGAAUGGAUCCACAUCUACGAAUUCGUACCAUAAAGAGGUUAUACGCUCACCGAGAUCGGAAGAGCACACGU
2. target 1 MT 5'PFS GUA 3'PFS CCA (mixed) RNA 1: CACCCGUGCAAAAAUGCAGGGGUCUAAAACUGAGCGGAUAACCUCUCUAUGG RNA 2: GGGAAUGGAUCCACAUCUACGAAUUCGUACCAUAGAGAGGUUAUCCGCUCACCAAGAUCGGAAGAGCACACGU
3. target 2 MT 5'PFS AUG 3'PFS UCC (mixed) RNA 1: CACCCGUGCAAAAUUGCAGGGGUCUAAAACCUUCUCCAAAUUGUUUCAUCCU RNA 2: GGGAAUGGAUCCACAUCUACGAAUUCAUGAGGAUGAAACAAUUUGGAGAAGUCCAGAUCGGAAGAGCACACGU
4. target 2 MT 5'PFS GAC 3'PFS ACC (mixed) RNA 1: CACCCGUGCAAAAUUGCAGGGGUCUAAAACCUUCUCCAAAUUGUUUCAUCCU RNA 2: GGGAAUGGAUCCACAUCUACGAAUUCGACAGGAUGAAACAAUUUGGAGAAGACCAGAUCGGAAGAGCACACGU

Ans.
51
19.6
24.4
14.7

Batch of 2 binders: report Kd for each.
1. target 1 MT 5'PFS UAG 3'PFS UAU (mixed) RNA 1: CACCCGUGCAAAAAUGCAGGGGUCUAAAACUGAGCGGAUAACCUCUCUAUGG RNA 2: GGGAAUGGAUCCACAUCUACGAAUUCUAGCCAUAGAGAGGUUAUCCGCUCAUAUAGAUCGGAAGAGCACACGU
2. target 1 C4A,G12U (mixed) RNA 1: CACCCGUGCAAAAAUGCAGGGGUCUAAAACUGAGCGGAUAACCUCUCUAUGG RNA 2: GGGAAUGGAUCCACAUCUACGAAUUCGUACCAUAGAGAGUUUAUCCGAUCACCGAGAUCGGAAGAGCACACGU

Ans.
1: 45; 2: 8.5

Give Kd for each listed item.
1. target 1 insG 3' of 18,insC 3' of 17 (mixed) RNA 1: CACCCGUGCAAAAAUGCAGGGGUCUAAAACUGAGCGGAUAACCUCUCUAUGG RNA 2: GGGAAUGGAUCCACAUCUACGAAUUCGUACCAUAGGCAGAGGUUAUCCGCUCACCGAGAUCGGAAGAGCACACGU
2. target 3 U2G,U7C (mixed) RNA 1: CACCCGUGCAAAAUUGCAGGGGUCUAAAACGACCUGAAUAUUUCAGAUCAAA RNA 2: GGGAAUGGAUCCACAUCUACGAAUUCGUUUUUGAUCUGAAAUAUCCAGGGCUGCAGAUCGGAAGAGCACACGU
3. target 1 insA 3' of 22,insU 3' of 12 (mixed) RNA 1: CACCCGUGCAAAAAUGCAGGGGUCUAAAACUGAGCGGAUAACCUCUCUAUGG RNA 2: GGGAAUGGAUCCACAUCUACGAAUUCGUACACAUAGAGAGGUUUAUCCGCUCACCGAGAUCGGAAGAGCACACGU

Ans.
1: 89; 2: 28; 3: 11.5

Please give Kd for each item listed below.
1. target 3 insU 3' of 11,insU 3' of 5 (mixed) RNA 1: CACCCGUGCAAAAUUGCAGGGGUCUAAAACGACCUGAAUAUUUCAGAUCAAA RNA 2: GGGAAUGGAUCCACAUCUACGAAUUCGUUUUUGAUCUGAAAUUAUUCAUGGUCUGCAGAUCGGAAGAGCACACGU
2. target 2 MT 5'PFS ACC 3'PFS UGU (mixed) RNA 1: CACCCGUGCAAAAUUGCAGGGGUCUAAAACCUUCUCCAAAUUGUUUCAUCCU RNA 2: GGGAAUGGAUCCACAUCUACGAAUUCACCAGGAUGAAACAAUUUGGAGAAGUGUAGAUCGGAAGAGCACACGU

Ans.
[64, 18]
